Every entry's value here was drawn from the Immune Epitope Database (IEDB).

- system_under_test: HLA-B*18:01
- protocol_description: IEDB peptide-MHC binding, purified MHC/direct/fluorescence; filed as Kd, often an IC50 or EC50 that approximates it; bounds were set here for any values at or beyond the usual limits of such assays
- conditions: source organism: Francisella tularensis subsp. tularensis FSC033
pKd: −log10 of the molar value.
observation_type: pKd

Param item = NTIEELSGY ; retrieve measured pKd.
≤ 4.70

* * *

- system_under_test: HLA-A*02:01
- protocol_description: IEDB peptide-MHC binding, purified MHC/competitive/fluorescence; filed as Kd, often an IC50 or EC50 that approximates it; bounds were set here for any values at or beyond the usual limits of such assays
- conditions: source organism: Entamoeba histolytica HM-1:IMSS
pKd: −log10 of the molar value.
What pKd was measured for each of the following?

seq_string	measured_value
EVIRATYPS	≤ 4.70

Param item = RTFDRFFEE ; retrieve measured pKd.
≤ 4.70
